- System: human retinoblastoma cells (Y79)
- Experiment Description: Presto Blue cell viability assay in Y79 cells at 72 h
- Type: cell-based
- Assay Setup: Y79, 1 hour at 42 °C followed by 71 hours at 37 °C, read-out: Y79 IC50 42 °C
Test Readout: IC50 (µM)
Record the value in µM, omitting the unit from your answer.

INSERT INTO assay_data (compound, meas_value) VALUES
  ('Cl.N[C@@H](Cc1ccc(N(CCCl)CCCl)cc1)C(=O)OCCC(F)(F)C(F)(F)C(F)(F)C(F)(F)C(F)(F)C(F)(F)C(F)(F)C(F)(F)F [Compound 3e]', 4.4);

Next item in the queue.
In: Entry Cl.N[C@@H](Cc1ccc(N(CCCl)CCCl)cc1)C(=O)OCCC(F)(F)C(F)(F)C(F)(F)C(F)(F)C(F)(F)C(F)(F)F [Compound 3d] has what IC50?
Out: 2.1

###

- Test system: Y79 human retinoblastoma cell line
- Experiment Description: Presto blue cell viability assay in Y79 after 24 hours
- Format: cell-based
- Assay Setup: Homo sapiens; Y79, 1 hour at 42 °C followed by 23 hours at 37 °C; read-out: IC50 42 °C
- Method: The IC50 values were determined using the presto blue cell viability assay (Table 1). The human retina (RPE1) and retinoblastoma (Y79) cell lines were purchased from ATCC, Switzerland. […] For thermal assays, the plates were placed in a heat chamber at 42 °C for 1 h and then transferred to a bioincubator at 37 °C for 71 h where the control plates were already placed. […] Fluorescence was measured using a […]
Let's look at some molecules and their measured IC50.

Examples from the recorded data:
INSERT INTO assay_data (molecule, meas_value) VALUES
  ('Cl.N[C@@H](Cc1ccc(N(CCCl)CCCl)cc1)C(=O)OCCC(F)(F)C(F)(F)C(F)(F)C(F)(F)C(F)(F)C(F)(F)F [Compound 3d]', '3.3 µM'),
  ('N[C@@H](Cc1ccc(N(CCCl)CCCl)cc1)C(=O)OCCC(F)(F)C(F)(F)F [Compound 3b]', '1.8 µM'),
  ('Cl.N[C@@H](Cc1ccc(N(CCCl)CCCl)cc1)C(=O)OCCC(F)(F)C(F)(F)C(F)(F)C(F)(F)C(F)(F)C(F)(F)C(F)(F)C(F)(F)F [Compound 3e]', '6.6 µM'),
  ('N[C@@H](Cc1ccc(N(CCCl)CCCl)cc1)C(=O)OCCC(F)(F)F [Compound 3a]', '1.1 µM'),
  ('N[C@@H](Cc1ccc(N(CCCl)CCCl)cc1)C(=O)O [Melphalan]', '26 µM'),
  ('Cl.N[C@@H](Cc1ccc(N(CCCl)CCCl)cc1)C(=O)OCCC(F)(F)C(F)(F)C(F)(F)C(F)(F)C(F)(F)C(F)(F)C(F)(F)C(F)(F)C(F)(F)C(F)(F)F [Compound 3f]', '183 µM');

# evaluate next
In: Query IC50 on Y79 human retinoblastoma cell line for N[C@@H](Cc1ccc(N(CCCl)CCCl)cc1)C(=O)OCCC(F)(F)C(F)(F)C(F)(F)C(F)(F)F [Compound 3c]
Out: 2.1 µM
